These data points were gathered from patent US20240075137A1.

Measured Kd by item
- target or test system: T1, Cyno TIGIT-His
- T1 construct: also called cyno TIGIT monomer (prepared in-house); C-terminal HIS-tagged cyno TIGIT ECD recombinant protein
- T1 sequence (ECD with C-terminal His tag, as listed by the source): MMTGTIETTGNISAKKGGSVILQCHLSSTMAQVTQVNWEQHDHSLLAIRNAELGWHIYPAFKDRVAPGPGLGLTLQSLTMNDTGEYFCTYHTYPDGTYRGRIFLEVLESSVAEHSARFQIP
- assay details: SPR (ProteOn), Cyno TIGIT-His
endpoint name: Kd (nM)

| binder | endpoint name | quantitative result |
| --- | --- | --- |
| CPA.9.103 (antibody, human IgG4 S228P, kappa, V domains shown, AF647 dye on the antibody in the FACS assay of FIG. 73, fab form is m92; also called CPA.9.103.H4(S241P)) VH: EVQLVETGGGLIQPGGSLRLSCAASGFTVSSNYMSWVRQAPGKGLEWVSVIYSGGSTYYADSVKGRFTISRDNSKNTLYLQMNSLRAEDTAVYYCARGARPNGQYPYWGQGTLVTVSS VL: DIQLTQSPSFLSASVGDRVTITCRASHGIKSLFSWYQQKPGKAPKLLIYAASTLQTGVPSRFSGSASGTEFTLTISSLQPEDFATYYCLQLDSFPTWTFGQGTKVEIKR | Kd | 0.337 |
| BM29 hIgG4 (antibody, V domains shown, benchmark anti-human TIGIT antibody, human IgG4 with S241P; also called BM29-H4; US2016/0176963A1 Clone 22G2 as hIgG4) VH: QVHLQESGPGLVKPSETLSLTCTVSGGSVSSGIYYWSWIRQPPGKGLEWIGYIYYSGSTNYNPSLKSRVTISVDTSKNQFSLKLSSVTAADTAVYYCARDYYVSGNYYNVDYYFFGVDVWGQGTTVTVSS VL: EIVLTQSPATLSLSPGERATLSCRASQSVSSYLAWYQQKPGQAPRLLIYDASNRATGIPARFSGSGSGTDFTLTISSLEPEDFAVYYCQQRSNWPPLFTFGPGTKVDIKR | Kd | 1.54 |
